target: PKR(wt) (Homo sapiens); test: Luminescence Biochemical Assay (Kinase Glo Plus), wild type PKR; details: without FBP, read-out: AC50 LUM KGP woFBP AC50 μM gmean
The entries below come with measured AC50 values attached.

O=C([C@H](O)c1ccc2c(c1)CNCC2)N1CC2=C(C1)CN(S(=O)(=O)c1ccc(OC(F)F)cc1)C2 (single isomer, unassigned); ≤ 0.1 µM
CC(C)Oc1cccc(CNC(=O)N2CC3=C(C2)CN(S(=O)(=O)c2ccc4ncsc4c2)C3)c1; 0.1 to 1 µM
CC(C)Oc1ccc(CNC(=O)N2CC3=C(C2)CN(S(=O)(=O)c2ccc4ncsc4c2)C3)cc1; 1 to 40 µM

Lookup: Looking for the measured AC50 of `O=C([C@H](O)c1ccccc1)N1CC2=C(C1)CN(S(=O)(=O)c1cccc(OC(F)F)c1)C2` , can you help?
Found: ≤ 0.1 µM

----------
The entries below come with measured activation at 1.54 µM values attached.
target: PKR(wt) (Homo sapiens, UniProt P30613); assay: Luminescence Biochemical Assay (Kinase Glo Plus), wild type PKR; settings: without FBP, 1.54 μM compound, read-out: AC50 LUM KGP woFBP % Fold@1.54 μM mean
Sequence (P30613 whole entry): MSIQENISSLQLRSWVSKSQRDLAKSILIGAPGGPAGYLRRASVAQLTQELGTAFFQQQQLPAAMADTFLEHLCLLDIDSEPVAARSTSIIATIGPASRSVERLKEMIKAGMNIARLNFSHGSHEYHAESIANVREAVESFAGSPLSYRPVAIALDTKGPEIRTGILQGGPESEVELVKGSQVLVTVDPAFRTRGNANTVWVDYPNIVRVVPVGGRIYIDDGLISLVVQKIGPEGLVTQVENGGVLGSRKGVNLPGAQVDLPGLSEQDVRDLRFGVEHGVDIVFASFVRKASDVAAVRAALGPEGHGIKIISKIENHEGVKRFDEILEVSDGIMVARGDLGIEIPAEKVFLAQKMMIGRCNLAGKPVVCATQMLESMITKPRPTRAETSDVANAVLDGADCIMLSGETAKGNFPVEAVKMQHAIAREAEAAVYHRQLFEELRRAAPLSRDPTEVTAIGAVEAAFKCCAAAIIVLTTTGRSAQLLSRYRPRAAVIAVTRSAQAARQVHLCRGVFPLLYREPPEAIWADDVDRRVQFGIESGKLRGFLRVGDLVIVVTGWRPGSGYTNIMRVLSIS

Cc1ccc(CC(=O)N2CC3=C(C2)CN(S(=O)(=O)c2ccc(OC(F)F)cc2)C3)cn1; 250 to 50000%

Please examine the following record next.
Lookup: Looking for the measured activation at 1.54 µM of `O=C(Cc1ccc(F)cc1F)N1CC2=C(C1)CN(S(=O)(=O)c1ccccn1)C2` , can you help?
Found: 75 to 250%

----------
molecular target: PKR(G332S) (Homo sapiens, UniProt P30613, G332S); assay: Luminescence Biochemical Assay (Kinase Glo Plus), PKR G332S mutant; settings: with FBP, read-out: AC50 LUM KGP FBP AC50 μM gmean (column A)
Sequence (P30613 whole entry G332S): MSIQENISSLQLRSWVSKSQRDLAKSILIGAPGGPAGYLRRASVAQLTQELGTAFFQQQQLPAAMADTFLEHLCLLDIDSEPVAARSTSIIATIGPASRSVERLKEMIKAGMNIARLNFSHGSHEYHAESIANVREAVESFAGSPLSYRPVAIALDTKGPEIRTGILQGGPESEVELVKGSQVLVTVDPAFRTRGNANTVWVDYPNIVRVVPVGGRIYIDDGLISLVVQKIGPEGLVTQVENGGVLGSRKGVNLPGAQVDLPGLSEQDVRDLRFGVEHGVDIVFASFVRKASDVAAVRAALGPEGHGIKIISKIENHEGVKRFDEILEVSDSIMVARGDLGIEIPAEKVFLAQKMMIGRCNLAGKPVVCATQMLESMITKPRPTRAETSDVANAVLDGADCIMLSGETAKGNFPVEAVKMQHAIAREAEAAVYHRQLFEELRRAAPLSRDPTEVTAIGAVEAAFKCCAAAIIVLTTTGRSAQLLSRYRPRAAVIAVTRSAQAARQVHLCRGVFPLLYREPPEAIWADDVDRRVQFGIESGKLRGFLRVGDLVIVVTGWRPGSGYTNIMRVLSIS
Parameter measured: AC50

Reference set, count: 5
O=C(Cc1cccnc1)N1CC2=C(C1)CN(S(=O)(=O)c1ccc(OC(F)F)cc1)C2 [Example 18-26]; ≤ 0.1 µM
O=C([C@H](O)c1ccccc1)N1CC2=C(C1)CN(S(=O)(=O)c1cccnc1C(F)(F)F)C2 [Example 4-2]; 1 to 40 µM
COc1ccc(CNC(=O)N2CC3=C(C2)CN(S(=O)(=O)c2ccc(OC(F)F)cc2)C3)cc1 [Example 21-10]; ≤ 0.1 µM
O=C(Cc1ccc[nH]1)N1CC2=C(C1)CN(S(=O)(=O)c1cccnc1)C2 [Example 18-73]; 1 to 40 µM
Cc1cccc(Cl)c1S(=O)(=O)N1CC2=C(CN(C(=O)[C@@H](O)c3ccccc3)C2)C1 [Example 18-54]; 1 to 40 µM

Lookup: Looking for the measured AC50 of CC[C@@H](O)C(=O)N1CC2=C(C1)CN(S(=O)(=O)c1ccc3c(c1)N(C)CCO3)C2 [Example 18-76] , can you help?
Found: 1 to 40 µM

Lookup: Looking for the measured AC50 of Cc1cc(CNC(=O)N2CC3=C(C2)CN(S(=O)(=O)c2ccccn2)C3)no1 [Example 21-43] , can you help?
Found: 0.1 to 1 µM

Lookup: Looking for the measured AC50 of O=C(OCC1CCOC1)N1CC2=C(C1)CN(S(=O)(=O)c1ccc(OC(F)F)cc1)C2 (stereo not drawn) [Example 22-3] , can you help?
Found: 1 to 40 µM

Lookup: Looking for the measured AC50 of O=C(NCc1cccc(F)c1)N1CC2=C(C1)CN(S(=O)(=O)c1ccc(OC(F)F)cc1)C2 [Example 21-14] , can you help?
Found: 0.1 to 1 µM

Lookup: Looking for the measured AC50 of O=C(NCc1cccnc1)N1CC2=C(C1)CN(S(=O)(=O)c1ccc3ncsc3c1)C2 [Example 20-56] , can you help?
Found: 0.1 to 1 µM

Lookup: Looking for the measured AC50 of O=C([C@@H]1CCCO1)N1CC2=C(C1)CN(S(=O)(=O)c1ccccn1)C2 [Example 18-69] , can you help?
Found: 1 to 40 µM

Lookup: Looking for the measured AC50 of O=C(N1CCOCC1)N1CC2=C(C1)CN(S(=O)(=O)c1ccc3ncsc3c1)C2 [Example 6-1] , can you help?
Found: 1 to 40 µM

Lookup: Looking for the measured AC50 of O=C(NCc1ccccc1F)N1CC2=C(C1)CN(S(=O)(=O)c1ccccn1)C2 [Example 21-42] , can you help?
Found: 0.1 to 1 µM

Lookup: Looking for the measured AC50 of O=C(NCc1ccc(F)cc1)N1CC2=C(C1)CN(S(=O)(=O)c1ccc(C(F)(F)F)nc1)C2 [Example 21-39] , can you help?
Found: 1 to 40 µM

Lookup: Looking for the measured AC50 of CC(=O)Nc1ccc(S(=O)(=O)N2CC3=C(CN(C(=O)[C@H](O)c4ccccc4)C3)C2)cc1 [Example 18-56] , can you help?
Found: 1 to 40 µM
